System: CAMK2B
SETUP CONDITIONS: concentration: 1 μM, replicates: in singlicate; n = 1;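 also: KINOMEscan kinase panel screen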
Listed here: items and their measured %Inh.

>  <CHEMICAL SMILES>
Cn1cc(-c2ccc3c(c2)CCN3C(=O)Cc2cccc(F)c2)c2c(N)ncnc21

>  <%Inh / %>
0

$$$$
>  <CHEMICAL SMILES>
CN1CCN(Cc2cccc(-c3ccc4c(Nc5ccc(Oc6ccccc6)cc5)ccnc4c3)c2)CC1

>  <%Inh / %>
0

$$$$
>  <CHEMICAL SMILES>
COc1cccc(C2=C(Nc3ccc(Cl)c(C(=O)O)c3)C(=O)NC2=O)c1

>  <%Inh / %>
0

$$$$
>  <CHEMICAL SMILES>
C[C@@H](Oc1cc(-n2cnc3cc(-c4ccnc(NCCS(C)(=O)=O)c4)ccc32)sc1C(N)=O)c1ccccc1Cl

>  <%Inh / %>
0

$$$$
>  <CHEMICAL SMILES>
CN(c1ccc(NC(=O)Nc2cc(C(F)(F)F)ccc2F)cc1)c1ccnc(Nc2ccc(S(N)(=O)=O)cc2)n1

>  <%Inh / %>
4

$$$$
>  <CHEMICAL SMILES>
O=C(Nc1cccc(Oc2ccc3nc(NC(=O)C4CC4)cn3n2)c1)c1ccccc1C(F)(F)F

>  <%Inh / %>
100

$$$$
>  <CHEMICAL SMILES>
c1ccc(Oc2ccc(Nc3ccnc4cc(-c5ccc(CNCCN6CCOCC6)o5)ccc34)cc2)nc1

>  <%Inh / %>
0

$$$$
>  <CHEMICAL SMILES>
Cc1cccc(NC(=O)Nc2ccc(Oc3ncnc4ccn(C)c34)cc2)c1

>  <%Inh / %>
0

$$$$
>  <CHEMICAL SMILES>
Cc1ccc(F)c(C(=O)Nc2cccc(-c3nn4ccccc4c3-c3ccnc(Nc4cccc(F)c4)n3)c2)c1F

>  <%Inh / %>
0

$$$$
>  <CHEMICAL SMILES>
Nc1ncnc2c1nc(-c1ccccc1)n2-c1ccccc1

>  <%Inh / %>
1

$$$$

----------
System: ROCK2
SETUP CONDITIONS: concentration: 1 μM, replicates: in singlicate; n = 1

>  <CHEMICAL SMILES>
CNC(=O)c1ccccc1Nc1nc(Nc2ccc(N3CCOCC3)cc2)ncc1Cl.Cl

>  <%Inh (%)>
37

$$$$
>  <CHEMICAL SMILES>
Nc1n[nH]c2cnc(-c3ccccc3)cc12

>  <%Inh (%)>
18

$$$$
>  <CHEMICAL SMILES>
c1ccc(-c2n[nH]cc2Nc2ccnc3ccccc23)nc1

>  <%Inh (%)>
97.8

$$$$
>  <CHEMICAL SMILES>
Cc1ccc(C(=O)N2CC[C@@H](O)C2)cc1-n1c(C)cc(OCc2ccc(F)cc2F)c(Br)c1=O

>  <%Inh (%)>
0

$$$$

----------
Tested on: STK39
SETUP CONDITIONS: concentration: 1 μM, replicates: in singlicate; n = 1

>  <MOLECULE>
COc1cc(Nc2nccc(N3CCC(NC(=O)Nc4cccc(C(C)=O)c4)C3)n2)cc(OC)c1OC (centres unmarked)

>  <UNITS>
%

>  <%Inh>
0

$$$$
>  <MOLECULE>
Nc1ncnc2c1nc(-c1ccccc1)n2-c1ccccc1

>  <UNITS>
%

>  <%Inh>
0

$$$$
>  <MOLECULE>
Cc1ccc(C(=O)N2CC[C@@H](O)C2)cc1-n1c(C)cc(OCc2ccc(F)cc2F)c(Br)c1=O

>  <UNITS>
%

>  <%Inh>
0

$$$$
>  <MOLECULE>
Clc1ccc(-c2nn3ncccc3c2-c2ccnc(Nc3ccc4c(c3)OCCO4)n2)cc1

>  <UNITS>
%

>  <%Inh>
0

$$$$
>  <MOLECULE>
Cl.Cl.NCC(NCc1ccc(-c2ccnc3[nH]ccc23)s1)c1ccccc1 (centres unmarked)

>  <UNITS>
%

>  <%Inh>
5

$$$$
